SUBJECT OF TEST: serotonin 5-HT2C receptor (isoform type VSV, stably expressing CHO cell) (Homo sapiens, UniProt P28335, I156V/I160V/N158S)
Sequence (P28335 33-458 I156V/N158S/I160V limits assumed): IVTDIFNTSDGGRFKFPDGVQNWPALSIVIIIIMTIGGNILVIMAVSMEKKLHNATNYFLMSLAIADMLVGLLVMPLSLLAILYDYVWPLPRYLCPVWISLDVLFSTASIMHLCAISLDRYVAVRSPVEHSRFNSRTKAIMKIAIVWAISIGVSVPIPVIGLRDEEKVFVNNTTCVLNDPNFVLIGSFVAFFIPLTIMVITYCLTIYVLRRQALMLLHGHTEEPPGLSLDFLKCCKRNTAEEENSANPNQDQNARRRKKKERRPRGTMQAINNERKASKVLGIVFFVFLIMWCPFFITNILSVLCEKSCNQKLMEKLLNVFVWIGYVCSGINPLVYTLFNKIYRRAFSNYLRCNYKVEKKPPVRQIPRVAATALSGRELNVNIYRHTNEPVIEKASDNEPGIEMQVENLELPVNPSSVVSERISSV
TEST DESCRIPTION: cell-based
RUN PARAMETERS: read-out: ratio to maximum response by 5-HT (1 μM)
Structures can show the parent of a compound that is named as a salt.
OUTCOME MEASURE: Emax (%)
Report as a plain number; the unit % is understood.

MOLECULE	OUTCOME MEASURE	RECORDED RESULT
C[C@H]1CNCc2scc(C3CC3)c2O1 [Example 14, hydrochloride]	Emax	100

Given item CCCc1csc2c1O[C@@H](C)CNC2 [Example 16, hydrochloride] , the value recorded as its Emax is 97

The value of Emax measured for the molecule COc1cccc(-c2csc3c2OC(C)CNC3)c1 (stereo not drawn) [Example 6, hydrochloride] turned out to be 97

Lookup result for C[C@H]1CNCc2scc(-c3cccc(F)c3)c2O1 [Example 12, hydrochloride] ; measured Emax: 101

# Emax of CC(c1csc2c1O[C@@H](C)CNC2)C(F)(F)F (stereo partly drawn) [Example 21, hydrochloride] = 94

GET /value?item= c1sc2c(c1C1CC1)OCCNC2 [Example 3, hydrochloride] &field=Emax returns 98

Emax recorded for this molecule, Fc1cccc(-c2csc3c2OCCNC3)c1 [Example 2, hydrochloride] , is 101

Kindly note the recorded Emax for c1sc2c(c1C1CCC1)OCCNC2 [Example 5, hydrochloride] , which is 107

Note to self: Emax recorded for CC(C)c1csc2c1OCCNC2 [Example 4, hydrochloride] was 99

---

SUBJECT OF TEST: serotonin 5-HT2C receptor (isoform type VSV, stably expressing CHO cell) (Homo sapiens, UniProt P28335, I156V/I160V/N158S)
TEST DESCRIPTION: cell-based
RUN PARAMETERS: read-out: ratio to maximum response by 5-HT (1 μM)
Counter-ions that a name gives are not always drawn.
Listed here: items and their measured Emax.
The figure you give is taken to be in %; do not add the unit.

Answered examples (2):
COMPOUND	Emax, %
CC(c1csc2c1OCCNC2)C(F)(F)F (stereo not drawn) [Example 20, hydrochloride]	85
Cc1sc2c(c1C1CC1)OCCNC2 [Example 17, hydrochloride]	91

With those in mind, consider the next compound.
Record summary for CC(C)c1csc2c1O[C@@H](C)CNC2 [Example 15, hydrochloride] : reported Emax = 96

// data source = patent US8916549B2
